Experiment description: Clearance in rat at 0.5 mg/kg, iv
Assay type: ADME, organism-based
Parameters: dose 0.5 mg/kg, route intravenous
Measurement conditions: in vivo
Property name: clearance (mL/min/kg)

Record excerpt, results attached:
>  <Smiles code>
COc1cc(-c2ccc(COc3ccc4c(c3)[C@@](C)(CC(=O)O)CC4)cc2[C@H](OC)C(C)(C)C)c(F)cn1

>  <Property name>
clearance

>  <Experimental result>
4.17

$$$$
>  <Smiles code>
COc1cc(-c2ccc(COc3cc([C@@H](CC(=O)O)C4CC4)ccn3)cc2[C@H](OC)C(C)(C)C)c(F)cn1

>  <Property name>
clearance

>  <Experimental result>
1.02

$$$$

(I) COc1cc(-c2ccc(COc3cc([C@@H](CC(=O)O)C4CC4)ccn3)cc2[C@@H]2CCCC2(C)C)c(F)cn1
(II) COc1cc(-c2ccc(COc3ccc4c(c3)[C@@](C)(CC(=O)O)CC4)cc2[C@@H]2CCCC2(C)C)c(F)cn1
Task: Could you check which of I and II has a smaller value for clearance? Select an item and report its label.
Result: I

(P) COc1cc(-c2ccc(COc3cc4c(cn3)CC[C@]43C[C@H]3C(=O)O)cc2[C@H](OC)C(C)(C)C)c(F)cn1
(Q) COc1ccc(F)c(-c2ccc(COc3cccc([C@@H](CC(=O)O)C4CC4)c3)cc2[C@H](OC)C(C)(C)C)c1
Task: Sorting ascending by clearance, which comes first: P or Q ? API: response body contains the label of the selected item.
Result: Q

Source: ChEMBL document CHEMBL3259605
